# testedTarget: Ubiquitin carboxyl-terminal hydrolase 1 (Homo sapiens) (UniProt O94782)
# Sequence (O94782 whole entry, looked up): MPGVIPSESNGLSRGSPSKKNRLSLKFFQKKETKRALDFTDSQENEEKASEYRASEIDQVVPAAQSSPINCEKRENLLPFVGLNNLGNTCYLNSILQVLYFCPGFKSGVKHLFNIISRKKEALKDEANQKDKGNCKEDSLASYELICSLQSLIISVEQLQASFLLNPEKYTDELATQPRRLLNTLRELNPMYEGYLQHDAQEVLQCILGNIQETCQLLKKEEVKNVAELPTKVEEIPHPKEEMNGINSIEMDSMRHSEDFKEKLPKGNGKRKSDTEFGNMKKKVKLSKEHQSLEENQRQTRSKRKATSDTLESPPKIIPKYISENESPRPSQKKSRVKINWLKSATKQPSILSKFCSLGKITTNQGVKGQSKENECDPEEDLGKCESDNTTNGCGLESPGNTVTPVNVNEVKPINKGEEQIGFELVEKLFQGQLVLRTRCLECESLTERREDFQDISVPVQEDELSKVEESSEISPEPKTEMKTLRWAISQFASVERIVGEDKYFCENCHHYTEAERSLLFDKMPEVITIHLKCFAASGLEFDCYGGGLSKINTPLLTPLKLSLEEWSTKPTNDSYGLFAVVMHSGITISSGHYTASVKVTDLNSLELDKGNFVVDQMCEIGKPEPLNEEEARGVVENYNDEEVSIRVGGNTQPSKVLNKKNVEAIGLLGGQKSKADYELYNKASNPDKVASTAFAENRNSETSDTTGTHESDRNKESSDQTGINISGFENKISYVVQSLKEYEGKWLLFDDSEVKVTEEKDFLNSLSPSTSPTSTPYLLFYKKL
# assayOverview: Inhibitors of USP1/UAF1: Pilot qHTS (AID 504865); further: nearly all actives have a fitted effect of over 35% in size
# conditionsUsed: purified USP1/UAF1, Ub-rhodamine cleavage fluorescence; series mostly up to 114 µM
Results filed as inconclusive are left out. Activity calls are given as the source filed them. The call rests on the fitted dose curve; in most records, active means well fitted inhibition curve with a large enough effect; inconclusive means small, poorly fitted or top-dose-only effect; inactive means flat fitted curve, though single readings scatter.
A correct response names exactly one class from t for active, f for inactive

Hi, sorry to bother you, what did the test record for CN1C2CCC1CC(OC(c1ccccc1)c1ccccc1)C2 (stereo not given) ?
f

Called result for "[N-]=[N+]=Nc1ccc(C(=O)CSC[C@H](NC(=O)CC[C@H](N)C(=O)O)C(=O)NCC(=O)O)cc1"
t

In this assay, the call recorded for "Cc1ccc2c(c1)C(N1CCN(C)CC1)=Nc1cccnc1N2" was what?
f

Outcome? "O=C(O)C1=CC(=C(c2ccc(O)c(C(=O)O)c2)c2ccc(O)c(C(=O)O)c2)C=CC1=O"
t

Per the assay record, what outcome was assigned to "C=C1C(=O)O[C@@H]2[C@H]3O[C@]3(C)CCC=C(C)CC[C@@H]12" ?
f

###

# assayOverview: qHTS for differential inhibitors of proliferation of Plasmodium falciparum line W2 (AID 1883);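 further: parasites grown with compound for 72 h before lysis and staining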
# conditionsUsed: Plasmodium falciparum W2 proliferation inhibition; series mostly up to 28.7 µM
Records with an inconclusive call do not appear. Activity calls are given as the source filed them. Calls come from the whole dose curve; as a rule, active = well fitted curve in the direction sought with a large enough effect; inconclusive = small, poorly fitted or top-dose-only effect, or another doubt; inactive = no such curve, though single readings can be large or run the other way.
# output must be one of true (1) (active), false (0) (inactive)

Would you mind telling me which call this test gave "Cc1nc(N=Nc2ccc(C(=O)O)cc2)c(COP(=O)(O)O)c(C=O)c1O" ?
false (0)

Hi team, can someone confirm the assay call for "CCCCCCCCCCCCCCC[C@H](O)[C@H](N)CO" ?
true (1)

Test call for this molecule, please: OCC1NCC(O)C(O)C1O (stereo unspecified)
false (0)

Hi team, can someone confirm the assay call for CC(C)(C)NCC(O)COc1cccc2[nH]c(=O)[nH]c12 (stereo unspecified) ?
false (0)

How was "C=CCn1c(=O)c2c(nc(-c3ccc(S(=O)(=O)O)cc3)n2C)n(C)c1=O" classified in this test?
false (0)

Which outcome was assigned to "N[C@@H](CCC(=O)N[C@H](CSN=O)C(=O)NCC(=O)O)C(=O)O" in this test?
false (0)

###

# assayOverview: AP1 Signaling Pathway (AID 357);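 further: ME-180 reporter cells stimulated with EGF at its EC50 level; on the % scale 0 is the no-effect control and ±100 the full control effect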
# conditionsUsed: ME-180 (cervical carcinoma) AP-1-bla reporter, EGF-induced, beta-lactamase ratio, 5 h; at 38 µM (top of the series) unless noted
# Procedure: NCGC Assay Overview: Activator protein-1 (AP-1), a transcription factor, plays an important role in tumor genesis by regulating genes involved in cell proliferation, differentiation, apoptosis, and angiogenesis. AP-1 activity is induced by a complex network of signaling pathways that involves extracellular signals, such as growth factors. […] Library compounds were measured for their ability to modulate positively or negatively the action of EC50 EGF on reporter gene activity. […]
Records with an inconclusive call do not appear. Residues, ends and D or L forms follow the SMILES beside them. *: point of attachment. Cbz = O=C(OCc1ccccc1)*
propertyMeasured: activity change, negative = inhibition (%)
Give the quantity in %, number only.

Would you mind telling me what activity change, negative = inhibition value was observed for "O=C(O)c1ccccc1Nc1ccccc1" ?
4.51

Would you kindly share the measured activity change, negative = inhibition for "O=c1cc(-c2ccccc2)[nH]c2nc(Cl)ccc12" ?
-2.89

Please look up its activity change, negative = inhibition: "Cn1cc(C(=O)OCC2CCN(CCNS(C)(=O)=O)CC2)c2ccccc21"
-4.52

I would be grateful if you could share the reported activity change, negative = inhibition for "CC(=O)NNC(=O)N1Cc2ccccc2Oc2ccc(Cl)cc21" .
-8.52

Need activity change, negative = inhibition, item "CCC(=O)N1CCN(C(=O)c2ccccc2)CC1"
-5.7

Quick check: activity change, negative = inhibition of "CCN(CC)CCOC(=O)c1cc(Cl)c(N)cc1OC" ?
11.7

What value of activity change, negative = inhibition has been reported for the following compound? "COc1ccccc1N1CCN(CCCCNC(=O)c2ccc3ccccc3c2)CC1"
1.71

Which value of activity change, negative = inhibition has been reported for "NC(=O)c1ccccc1" in the records?
-2.04

Please report the recorded activity change, negative = inhibition for CC(C)[C@H](NC(=O)OCc1ccccc1)C(=O)N[C@H](C=O)Cc1ccccc1 (Cbz-Val-Phe-aldehyde) .
-8.71

What measured activity change, negative = inhibition goes with "COCc1nc2c([nH]1)c(=O)n(C)c(=O)n2CC(C)C" ?
1.03

Field request: activity change, negative = inhibition | item: "O=C1Cc2c([nH]c3ccc(Br)cc23)-c2ccccc2N1"
-104

Which activity change, negative = inhibition value is on record for "O=C(O)C1=CC(=C(c2ccc(O)c(C(=O)O)c2)c2ccc(O)c(C(=O)O)c2)C=CC1=O" ?
-18.9

Field request: activity change, negative = inhibition | item: "Nc1nc2ccc(Cl)cc2c2nc(-c3ccco3)nn12"
-6.92

Please give the measured activity change, negative = inhibition for this compound: "CSC(=N)N"
-0.186

May I ask what activity change, negative = inhibition has been recorded for "O=C(O)c1cccnc1C(=O)O" ?
-4.89

Which activity change, negative = inhibition is listed for "Cc1cc2c(cc1Cl)N(C(=O)Nc1ccnc3ccccc13)CC2" ?
-29.6

If you can, please state the reported activity change, negative = inhibition value of "CCN(CC)CCCCCCCCOC(=O)c1cc(OC)c(OC)c(OC)c1" .
20.2

Item "CC(=O)NCCc1c[nH]c2ccc(O)cc12" has what recorded activity change, negative = inhibition?
-2.23

Could you share which activity change, negative = inhibition value was measured for "CC(C)Cn1c(=O)n(C)c(=O)c2[nH]cnc21" ?
0.858

Could you share which activity change, negative = inhibition value was measured for "CCCCCCC/C=C\CCCCCCCCC(=O)O" ?
12.5

Look up activity change, negative = inhibition for this compound: "Cc1cccc(C(=O)NCN2CCN(c3ccccc3C#N)CC2)c1"
-12.1

Sample "O=c1ccc2c(OCCCCc3ccccc3)c3ccoc3cc2o1" — what was its activity change, negative = inhibition?
-12.4

Fill in the blank: the reported activity change, negative = inhibition of "Cc1nc(N=Nc2cc(S(=O)(=O)O)c3cc([N+](=O)[O-])cc(S(=O)(=O)O)c3c2)c(COP(=O)(O)O)c(C=O)c1O" is ____.
-0.539

Requested field: activity change, negative = inhibition. Item: "CCCOC(=O)c1c(-c2ccccc2)nc(CC)c(C(=O)SCC)c1CCC"
2.66
